test-system: Receptor tyrosine-protein kinase erbB-2 (Homo sapiens)
Sequence (P04626 whole entry): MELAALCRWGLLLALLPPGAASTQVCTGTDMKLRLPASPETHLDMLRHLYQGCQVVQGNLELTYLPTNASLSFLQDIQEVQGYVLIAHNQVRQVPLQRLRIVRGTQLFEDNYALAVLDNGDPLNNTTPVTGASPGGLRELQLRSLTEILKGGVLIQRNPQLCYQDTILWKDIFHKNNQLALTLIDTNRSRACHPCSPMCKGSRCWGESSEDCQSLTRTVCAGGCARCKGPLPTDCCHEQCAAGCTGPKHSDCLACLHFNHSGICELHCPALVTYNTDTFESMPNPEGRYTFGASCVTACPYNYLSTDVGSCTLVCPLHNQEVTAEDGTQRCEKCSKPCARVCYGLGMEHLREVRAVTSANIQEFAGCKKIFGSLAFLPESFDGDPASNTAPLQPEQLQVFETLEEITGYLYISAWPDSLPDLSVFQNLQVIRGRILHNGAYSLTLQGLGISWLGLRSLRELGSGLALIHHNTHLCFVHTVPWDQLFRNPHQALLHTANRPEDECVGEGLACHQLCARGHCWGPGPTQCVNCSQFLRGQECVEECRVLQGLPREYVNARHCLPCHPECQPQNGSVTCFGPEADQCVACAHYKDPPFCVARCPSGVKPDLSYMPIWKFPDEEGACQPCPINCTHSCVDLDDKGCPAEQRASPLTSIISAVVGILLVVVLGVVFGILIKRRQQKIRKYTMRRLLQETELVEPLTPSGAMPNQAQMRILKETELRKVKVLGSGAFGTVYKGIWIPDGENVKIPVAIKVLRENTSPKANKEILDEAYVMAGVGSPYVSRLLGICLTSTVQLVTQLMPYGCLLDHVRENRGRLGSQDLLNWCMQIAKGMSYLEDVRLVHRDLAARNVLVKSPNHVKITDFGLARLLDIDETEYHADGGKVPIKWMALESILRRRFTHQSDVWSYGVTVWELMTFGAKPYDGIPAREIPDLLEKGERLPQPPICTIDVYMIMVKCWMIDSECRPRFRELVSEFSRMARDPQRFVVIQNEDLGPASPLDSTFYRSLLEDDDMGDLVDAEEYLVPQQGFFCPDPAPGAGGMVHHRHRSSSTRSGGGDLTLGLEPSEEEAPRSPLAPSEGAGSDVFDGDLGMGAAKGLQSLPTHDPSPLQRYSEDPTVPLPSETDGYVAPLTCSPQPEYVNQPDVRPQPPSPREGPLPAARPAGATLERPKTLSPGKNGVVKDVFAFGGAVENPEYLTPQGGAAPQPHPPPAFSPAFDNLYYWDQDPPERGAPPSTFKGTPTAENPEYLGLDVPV
method-summary: Inhibition of ebrB2 expressed in human MCF7 cells by autophosphorylation assay
Type: cell-based
measurement-name: IC50 (nM)
The reply should contain only the number, in nM.

Solved cases (2 shown):
[
  {
    "structure-smiles-string": "Cc1ccc(Oc2ccc(Nc3ncnc4cccc(O[C@H](C)C(=O)N5CCOCC5)c34)cc2Cl)cn1",
    "IC50 (nM)": 27
  },
  {
    "structure-smiles-string": "CN(CCO)C(=O)COc1cccc2ncnc(Nc3ccc(OCc4ccccn4)c(Cl)c3)c12",
    "IC50 (nM)": 120
  }
]

Enquiry: Specify reported IC50 for the molecule shown: "Cc1ccc(Oc2ccc(Nc3ncnc4cccc(OCC(=O)N(C)CCO)c34)cc2C)cn1"
Return: 130

Enquiry: Please report IC50 for the following molecule: "C[C@@H](Oc1cccc2ncnc(Nc3ccc(OCc4ccccn4)c(Cl)c3)c12)C(=O)N1CCOCC1"
Return: 19

====

Notes on pIC50 obtained with Voltage-gated inwardly rectifying potassium channel KCNH2 (Homo sapiens).
Sequence (Q12809 whole entry): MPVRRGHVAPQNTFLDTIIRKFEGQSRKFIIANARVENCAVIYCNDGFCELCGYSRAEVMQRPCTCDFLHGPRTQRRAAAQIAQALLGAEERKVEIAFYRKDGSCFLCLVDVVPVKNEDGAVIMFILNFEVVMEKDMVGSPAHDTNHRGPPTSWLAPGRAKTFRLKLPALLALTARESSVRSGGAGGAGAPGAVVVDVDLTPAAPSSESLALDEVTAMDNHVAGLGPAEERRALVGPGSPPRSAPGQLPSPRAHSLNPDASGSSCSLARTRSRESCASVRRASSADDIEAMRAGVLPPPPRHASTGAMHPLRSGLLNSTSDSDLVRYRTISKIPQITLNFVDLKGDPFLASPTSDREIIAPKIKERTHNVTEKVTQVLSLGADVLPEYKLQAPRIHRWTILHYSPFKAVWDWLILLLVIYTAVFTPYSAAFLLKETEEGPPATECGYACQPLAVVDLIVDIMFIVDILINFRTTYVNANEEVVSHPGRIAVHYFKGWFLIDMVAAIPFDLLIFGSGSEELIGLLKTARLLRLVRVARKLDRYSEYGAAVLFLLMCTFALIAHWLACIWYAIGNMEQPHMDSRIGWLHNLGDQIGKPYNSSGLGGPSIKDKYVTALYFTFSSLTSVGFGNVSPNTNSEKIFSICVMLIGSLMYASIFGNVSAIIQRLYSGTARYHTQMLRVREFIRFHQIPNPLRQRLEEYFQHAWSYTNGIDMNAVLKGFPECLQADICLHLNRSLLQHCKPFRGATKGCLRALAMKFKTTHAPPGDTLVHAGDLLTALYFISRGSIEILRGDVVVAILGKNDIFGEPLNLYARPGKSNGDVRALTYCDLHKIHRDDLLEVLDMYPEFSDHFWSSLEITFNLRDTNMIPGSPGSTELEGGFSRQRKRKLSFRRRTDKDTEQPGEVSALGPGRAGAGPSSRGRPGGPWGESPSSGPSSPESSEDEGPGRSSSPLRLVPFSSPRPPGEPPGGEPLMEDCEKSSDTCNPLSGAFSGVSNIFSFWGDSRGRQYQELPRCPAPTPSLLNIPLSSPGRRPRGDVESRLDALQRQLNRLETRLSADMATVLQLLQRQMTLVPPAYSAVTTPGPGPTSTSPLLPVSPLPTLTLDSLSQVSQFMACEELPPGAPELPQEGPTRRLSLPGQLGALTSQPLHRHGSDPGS
To interpret pIC50, take it as minus log10 of a concentration measured in moles per litre.

[
  {
    "structure-smiles-string": "Cc1ccc(Oc2ccc(Nc3ncnc4cccc(O[C@@H](C)C(=O)N(C)C)c34)cc2C)cn1",
    "pIC50": 4.96
  },
  {
    "structure-smiles-string": "C[C@H](Oc1cccc2ncnc(Nc3ccc(OCc4ccccn4)c(Cl)c3)c12)C(=O)N(C)C",
    "pIC50": 5.00
  },
  {
    "structure-smiles-string": "Cc1ccc(Oc2ccc(Nc3ncnc4cccc(O[C@H](C)C(=O)N(C)C)c34)cc2C)cn1",
    "pIC50": 5.10
  }
]

Enquiry: Hello, please tell me recorded pIC50 for this one: "C[C@@H](Oc1cccc2ncnc(Nc3ccc(OCc4ccccn4)c(Cl)c3)c12)C(=O)N1CCOCC1"
Return: 5.00

====

test-system: Receptor tyrosine-protein kinase erbB-2 (Homo sapiens)
method-summary: Inhibition of ebrB2 expressed in human MCF7 cells by autophosphorylation assay
Format: cell-based
Catalogue of IC50 readings, one per entry.
The response must be a number in nM with no trailing unit.

Example compounds with recorded IC50:
[
  {
    "structure-smiles-string": "Cc1ccc(Oc2ccc(Nc3ncnc4cccc(O[C@H](C)C(=O)N5CCOCC5)c34)cc2C)cn1",
    "IC50 (nM)": 22
  },
  {
    "structure-smiles-string": "CN1CCN(C(=O)COc2cccc3ncnc(Nc4ccc(OCc5ccccn5)c(Cl)c4)c23)CC1",
    "IC50 (nM)": 350
  },
  {
    "structure-smiles-string": "CNC(=O)[C@@H](C)Oc1cccc2ncnc(Nc3ccc(OCc4ccccn4)c(Cl)c3)c12",
    "IC50 (nM)": 66
  },
  {
    "structure-smiles-string": "C[C@H](Oc1cccc2ncnc(Nc3ccc(OCc4ccccn4)c(Cl)c3)c12)C(=O)N(C)C",
    "IC50 (nM)": 43
  },
  {
    "structure-smiles-string": "C[C@@H](Oc1cccc2ncnc(Nc3ccc(OCc4ccccn4)c(Cl)c3)c12)C(=O)N(C)C",
    "IC50 (nM)": 34
  }
]

Enquiry: Please indicate IC50 recorded for "COCCN(C)C(=O)[C@@H](C)Oc1cccc2ncnc(Nc3ccc(Oc4ccc(C)nc4)c(C)c3)c12"
Return: 120

Enquiry: Look up IC50 of "Cc1ccc(Oc2ccc(Nc3ncnc4cccc(O[C@@H](C)C(=O)N5CCOCC5)c34)cc2C)cn1" and report it.
Return: 35
